- Target Of Assay: A3-YFP (Homo sapiens)
- Sequence (P0DMS8 1-318): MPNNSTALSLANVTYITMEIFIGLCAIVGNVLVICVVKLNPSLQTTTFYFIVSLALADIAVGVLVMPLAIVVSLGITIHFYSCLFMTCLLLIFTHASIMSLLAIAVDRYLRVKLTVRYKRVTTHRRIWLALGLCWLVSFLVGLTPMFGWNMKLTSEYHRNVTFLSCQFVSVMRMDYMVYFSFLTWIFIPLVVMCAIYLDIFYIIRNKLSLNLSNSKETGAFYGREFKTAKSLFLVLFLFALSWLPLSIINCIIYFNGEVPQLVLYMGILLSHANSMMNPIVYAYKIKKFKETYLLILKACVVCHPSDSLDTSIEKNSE
Quantity Name: pKi
Quick note: pKi values are minus log10 of concentrations in mol/L.

(Q) // query pKi value for entry `CCCCC#Cc1nc(NC)c2ncn([C@@H]3O[C@H](CO)[C@@H](O)[C@H]3O)c2n1`
(A) 7.48
